All figures here come from patent US20100324279A1.

Test: Approximate solubilities of A-type crystals of MRE-0094 in test solvents
Assay type: physicochemical
Conditions: organic solvent or mixture, thermodynamic from solid; THF, RT
Protocol: Weighed samples of MRE-0094 (typically 30-60 mg) are treated with aliquots of the test solvent. Solvents are either reagent or HPLC grade. The aliquots are usually 200 μL or 500 μL. Between additions the mixtures are sonicated. […] Note that actual solubilities may be greater than those calculated due to the volume of the solvent aliquots or to a slow rate of dissolution. […] The solubilities are reported to the nearest mg/mL.
property.measured: solubility

molecule="Nc1nc(OCCc2ccc(Cl)cc2)nc2c1ncn2[C@@H]1O[C@H](CO)[C@@H](O)[C@H]1O [A-type crystal form, 2-[2-(4-chlorophenyl)ethoxy]adenosine]" result="23 mg/mL"

====

Experiment: Approximate solubilities of A-type crystals of MRE-0094 in test solvents
Type: physicochemical
Settings: aqueous with cosolvent or surfactant or cyclodextrin, thermodynamic from solid; EtOH:water - 1:1, RT
property.measured: solubility (µg/mL)

compound="Nc1nc(OCCc2ccc(Cl)cc2)nc2c1ncn2[C@@H]1O[C@H](CO)[C@@H](O)[C@H]1O [A-type crystal form, 2-[2-(4-chlorophenyl)ethoxy]adenosine]" u=µg/mL result=9000

====

Assay: Approximate solubilities of A-type crystals of MRE-0094 in test solvents
Assay type: physicochemical
Settings: organic solvent or mixture, thermodynamic from solid; MEK, RT
property.measured: solubility (µg/mL)

compound="Nc1nc(OCCc2ccc(Cl)cc2)nc2c1ncn2[C@@H]1O[C@H](CO)[C@@H](O)[C@H]1O [A-type crystal form, 2-[2-(4-chlorophenyl)ethoxy]adenosine]" property_measured=solubility result=4000

====

Assay: Approximate solubilities of A-type crystals of MRE-0094 in test solvents
Type: physicochemical
Details: organic solvent or mixture, thermodynamic from solid; toluene, RT
property.measured: solubility

compound="Nc1nc(OCCc2ccc(Cl)cc2)nc2c1ncn2[C@@H]1O[C@H](CO)[C@@H](O)[C@H]1O [A-type crystal form, 2-[2-(4-chlorophenyl)ethoxy]adenosine]" property_measured=solubility result="< 4000 µg/mL"

====

Assay: Approximate solubilities of A-type crystals of MRE-0094 in test solvents
Format: physicochemical
Conditions: organic solvent or mixture, thermodynamic from solid; 1,4-dioxane, RT
property.measured: solubility

compound="Nc1nc(OCCc2ccc(Cl)cc2)nc2c1ncn2[C@@H]1O[C@H](CO)[C@@H](O)[C@H]1O [A-type crystal form, 2-[2-(4-chlorophenyl)ethoxy]adenosine]" property_measured=solubility result="17 mg/mL"

====

Test: Approximate solubilities of A-type crystals of MRE-0094 in test solvents
Type: physicochemical
Settings: organic solvent or mixture, thermodynamic from solid; MeOH, RT
property.measured: solubility (µg/mL)

compound="Nc1nc(OCCc2ccc(Cl)cc2)nc2c1ncn2[C@@H]1O[C@H](CO)[C@@H](O)[C@H]1O [A-type crystal form, 2-[2-(4-chlorophenyl)ethoxy]adenosine]" u=µg/mL result=4000

====

Assay: Approximate solubilities of A-type crystals of MRE-0094 in test solvents
Assay type: physicochemical
Conditions: organic solvent or mixture, thermodynamic from solid; EtOAc, RT
property.measured: solubility

compound="Nc1nc(OCCc2ccc(Cl)cc2)nc2c1ncn2[C@@H]1O[C@H](CO)[C@@H](O)[C@H]1O [A-type crystal form, 2-[2-(4-chlorophenyl)ethoxy]adenosine]" property_measured=solubility result="< 4000 µg/mL"
